Hello, the source for this data is paper PMC3133600, in case you need it.

- Tested on: H3K4me3 and H3K9me3 levels in MCF7 cells
- Type: cell-based, human
- conditionLabel: read-out: EC50 for H3K9me3
experimentalReadout: EC50 (µM)
Unit µM implied. Number only.

Give its EC50 value. Item: COC(=O)/C=C/C(=O)N(O)CCCCNCc1ccc(COC(=O)Nc2cccc3ccccc23)cc1
6.3

====

- Test system: H3K4me3 and H3K9me3 levels in MCF7 cells
- Format: cell-based, human
- conditionLabel: read-out: EC50 for H3K4me3
experimentalReadout: pEC50
// field semantics: pEC50 = negative decimal log of concentration (mol/L)

Any idea what its pEC50 is? The molecule is COC(=O)/C=C/C(=O)N(O)CCCCNCc1ccc(COC(=O)Nc2cccc3ccccc23)cc1 [Methylstat, methylstat]
5.17
